System: primary CLL cells
ASSAY_EXPLANATION: Cytotoxicity, TMRE flow cytometry viability, primary CLL cells (Example II.1)
Assay type: cell-based
RECORDED_CONDITIONS: Homo sapiens, CLL cell, 6 hours, TMRE positive cells normalized to control, ratio to PF670462, <1 = higher cytotoxicity than PF670462, read-out: Viability of cells, Compound of formula I (100 μM), relative to PF670462 (100 μM), CLL primary cells
Experimental: […] Cytotoxicity of compounds of formula I was tested in two models representative for leukemia (primary CLL cells) and lymphoma (Maver-1 cells). […] Viability of cells was assessed after 6 hours in case of primary CLL cells and after 24 hours in case of Maver-1 cells. Apoptosis-induced reduction of mitochondrial potential is detected as lower TMRE fluorescence. […]
EXPERIMENTAL_ENDPOINT: viability at 100 µM (%)
Numbers only here, please. The scale is %.

The cases that follow already have their viability at 100 µM on record.
> print(dat)
                            molecule.smiles  measured.number
1  O[C@H]1CC[C@@H](n2cnc(-c3ccc(F)cc3)c2-c2ccnc3[nH]ccc23)CC1               78
2  Fc1ccc(-c2ncn(Cc3cc[nH]n3)c2-c2ccnc3[nH]ccc23)cc1               87
3  Fc1ccc(-c2ncn(Cc3ccncc3)c2-c2ccnc3[nH]ccc23)cc1               78
4  Fc1ccc(-c2ncn(-c3cccnc3)c2-c2ccnc3[nH]ccc23)cc1               63
5  c1cc(-c2c(-c3ccsc3)ncn2C2CCCCC2)c2cc[nH]c2n1               76

Challenge: Param item = CCOC(=O)c1nc(-c2ccc(F)cc2)c(-c2ccnc3[nH]ccc23)n1C1CCCCC1 ; retrieve measured viability at 100 µM.
Response given: 57

Challenge: Subsequent entry: CN(C)[C@H]1CC[C@@H](n2cnc(-c3ccc(F)cc3)c2-c2ccnc3[nH]ccc23)CC1
Response given: 23

* * *

Test system: OVCAR4
ASSAY_EXPLANATION: Cytotoxicity on panel of cell lines, TMRE viability (Example II.2)
Type: cell-based
RECORDED_CONDITIONS: Homo sapiens, OVCAR-4, 24 hours, mean, control = 1, read-out: cell viability relative to control, OVCAR4 (ovarian cancer)
Item-by-item account of viability at 30 µM
Express it in %; write the number only.

> print(dat)
                                   molecule  measured.number
1  C=CS(=O)(=O)N[C@H]1CC[C@@H](n2cnc(-c3ccc(F)cc3)c2-c2ccnc3[nH]ccc23)CC1               78
2  Cn1cnc(Cn2cnc(-c3ccc(F)cc3)c2-c2ccnc3[nH]ccc23)n1               89
3  Fc1ccc(-c2nc(I)n(C3CCCCC3)c2-c2ccnc3[nH]ccc23)cc1                7
4  Fc1ccc(-c2ncn(C3CCCCC3)c2-c2c(F)cnc3[nH]ccc23)cc1               69
5  Fc1ccc(-c2ncn(-c3ccccc3)c2-c2ccnc3[nH]ccc23)cc1               76

Challenge: Returns the measured viability at 30 µM for the input molecule. Input: Nc1nccc(-c2c(-c3ccc(F)cc3)ncn2C2CCCCC2)n1 [PF670462, reference compound]
Response given: 95

Challenge: Now give it for Fc1ccc(-c2ncn(C3CCNCC3)c2-c2ccnc3[nH]ccc23)cc1 too.
Response given: 82

Challenge: How about this molecule: Cc1cc2c(-c3c(-c4ccc(F)cc4)ncn3C3CCCCC3)ccnc2[nH]1
Response given: 42
